- assay comment: Direct HA-binding ELISA of biotinylated peptides on HA coated plates (Example 4)
- conditions used: optical density; summary tables 15, 17, 19
Bridges are numbered along the chain shown (N, C = ends).
endpoint: HA direct binding (OD)

INSERT INTO results (substance, endpoint, obs_value) VALUES
  ('Ac-(cyclo-8,12)-NLKQKIK[EVVKK]KDE-NH2 (Ac-NLKQKIKEVVKKKDE-NH2; lactam 8-12; SMILES CC[C@H](C)[C@H](NC(=O)[C@H](CCCCN)NC(=O)[C@H](CCC(N)=O)NC(=O)[C@H](CCCCN)NC(=O)[C@H](CC(C)C)NC(=O)[C@H](CC(N)=O)NC(C)=O)C(=O)N[C@@H](CCCCN)C(=O)N[C@H]1CCC(=O)NCCCC[C@@H](C(=O)N[C@@H](CCCCN)C(=O)N[C@@H](CC(=O)O)C(=O)N[C@@H](CCC(=O)O)C(N)=O)NC(=O)[C@H](CCCCN)NC(=O)[C@H](C(C)C)NC(=O)[C@H](C(C)C)NC1=O) [Compound 161]', 'HA direct binding (OD)', 0.009),
  ('Ac-NLKQKIKHVVKLKDENSQLKSEVSKLRSQLVKRKQN-NH2 [Compound 275]', 'HA direct binding (OD)', 0.11),
  ('Ac-(cyclo-4,8)-VSK[ERSQK]VKRKQN-NH2 (Ac-VSKERSQKVKRKQN-NH2; lactam 4-8; SMILES CC(=O)N[C@H](C(=O)N[C@@H](CO)C(=O)N[C@@H](CCCCN)C(=O)N[C@H]1CCC(=O)NCCCC[C@@H](C(=O)N[C@H](C(=O)N[C@@H](CCCCN)C(=O)N[C@@H](CCCNC(=N)N)C(=O)N[C@@H](CCCCN)C(=O)N[C@@H](CCC(N)=O)C(=O)N[C@@H](CC(N)=O)C(N)=O)C(C)C)NC(=O)[C@H](CCC(N)=O)NC(=O)[C@H](CO)NC(=O)[C@H](CCCNC(=N)N)NC1=O)C(C)C) [Compound 150]', 'HA direct binding (OD)', 0.015);

1. Ac-(cyclo-11-15, cyclo-16-20)-KIKHVVKLKD[ENSQK][ESEVK]KLRSQLVKRIK-NH2 [Compound 267]
2. Ac-(cyclo-10-14, cyclo-15-19)-KIKHVVKLK[KENSE][EKSEK]SKLRSQLVKRK-NH2 [Compound 269]
3. Ac-KIKHVVKLKDENSQLKSEVSKLRSQLVKRK-NH2 [Compound 265]
Query: Order the items by recorded HA direct binding (OD); the first position goes to the largest value. Lab note: record answer as labels in requested order.
Result: 2, 3, 1

Value source: patent US10562935B2
